# System: E. coli 94474
# test-details: microbe, parasite or virus in culture
# Type: cell-based, Escherichia coli
# condition-details: Escherichia coli, 18 h; E. coli 94474 (mcr-1 +); read-out: MICs of various antibiotics
Exercise: state measured MIC for each of the compounds provided.
Give bare numbers, in µg/mL.

Solved cases (2 shown):
- compound: "Cc1nnc(SCC2=C(C(=O)O)N3C(=O)[C@@H](NC(=O)Cn4cnnn4)[C@H]3SC2)s1 [CFZ, cefazolin]"
  system-tested: "E. coli 94474"
  MIC, µg/mL: 4
- compound: "CN(C)c1cc(CNCC(C)(C)C)c(O)c2c1C[C@H]1C[C@H]3[C@H](N(C)C)C(O)=C(C(N)=O)C(=O)[C@@]3(O)C(O)=C1C2=O [OMC, omadacycline]"
  system-tested: "E. coli 94474"
  MIC, µg/mL: 16

Read the next record carefully.
# MIC of NC[C@H]1O[C@H](O[C@H]2[C@H](O)[C@@H](O[C@H]3O[C@H](CO)[C@@H](O)[C@H](N)[C@H]3O)[C@H](N)C[C@@H]2N)[C@H](N)C[C@@H]1O [TOB, tobramycin] = 32
